Test system: mPer2Luc MEF
protocol: PER2::LUC luminescence relative to vehicle control (fold of vehicle); higher = higher PER2::LUC reporter signal
assay-conditions: time after treatment 24 h; 10 µM
Whole data set: some 5,300 compounds, median “PER2::LUC luminescence relative to vehicle control” near 0.96, cut for the highest 2% near 1.3. The entries come from a sample that favours the highest values as a whole.
Short version: PER2::LUC luminescence at least 1 is fulfilled, less is not fulfilled.

{"compound": "COc1ccc(C[C@H]2c3cc(OC)c(OC)cc3CC[N+]2(C)C)cc1OC", "group": "not fulfilled"}
{"compound": "COc1cccc(/C=N/N(C(=O)C(F)(F)F)c2ccc(C)cc2C)c1", "group": "not fulfilled"}
{"compound": "CCCCNc1cc(C(=O)O)cc(S(N)(=O)=O)c1Oc1ccccc1", "group": "fulfilled"}
{"compound": "COc1ccc(/C=C/c2ccccc2F)cc1", "group": "fulfilled"}
{"compound": "COc1cccc(OC)c1C(=O)N[C@@H]1C(=O)N2[C@@H]1SC(C)(C)[C@@H]2C(=O)O", "group": "not fulfilled"}
{"compound": "CCCCCCCCCCCCCCCCCC(=O)OC(CC(=O)O)C[N+](C)(C)C (racemic)", "group": "not fulfilled"}
{"compound": "CCCCNc1ccc(C(=O)OCCOCCOCCOCCOCCOCCOCCOCCOCCOC)cc1", "group": "fulfilled"}
{"compound": "CC1(C)S[C@@H]2[C@H](NC(=O)COc3ccccc3)C(=O)N2[C@H]1C(=O)O", "group": "fulfilled"}
{"compound": "CC1(C)S[C@@H]2[C@H](NC(=O)C(C(=O)O)c3ccccc3)C(=O)N2[C@H]1C(=O)O (some centres not stated)", "group": "fulfilled"}
{"compound": "Cc1onc(-c2ccccc2)c1C(=O)N1CCN(c2ccc([N+](=O)[O-])cc2Cl)CC1", "group": "not fulfilled"}
{"compound": "CC(=O)OC[C@@]1(O)C[C@@]23CC[C@@H]4c5ccoc5CC[C@@]4(C)[C@@H]2CC[C@@H]1C3", "group": "fulfilled"}
{"compound": "Cn1nnnc1SCC1=C(C(=O)O)N2C(=O)[C@@H](NC(=O)C(OC=O)c3ccccc3)[C@H]2SC1 (some centres not stated)", "group": "not fulfilled"}
{"compound": "CCCNC(C)(C)COC(=O)c1ccccc1", "group": "not fulfilled"}
{"compound": "CC(=O)CCCCn1cnc2c1c(=O)n(C)c(=O)n2C", "group": "not fulfilled"}
{"compound": "COCCOc1nc(N)c2[nH]c(=O)n(Cc3ccccc3)c2n1", "group": "fulfilled"}
{"compound": "O=c1c(O)c(-c2ccccc2)oc2cc(O)ccc12", "group": "fulfilled"}
